- STUDY SYSTEM: human NEP (Homo sapiens (Human), UniProt P08473)
- Sequence (P08473 52-750): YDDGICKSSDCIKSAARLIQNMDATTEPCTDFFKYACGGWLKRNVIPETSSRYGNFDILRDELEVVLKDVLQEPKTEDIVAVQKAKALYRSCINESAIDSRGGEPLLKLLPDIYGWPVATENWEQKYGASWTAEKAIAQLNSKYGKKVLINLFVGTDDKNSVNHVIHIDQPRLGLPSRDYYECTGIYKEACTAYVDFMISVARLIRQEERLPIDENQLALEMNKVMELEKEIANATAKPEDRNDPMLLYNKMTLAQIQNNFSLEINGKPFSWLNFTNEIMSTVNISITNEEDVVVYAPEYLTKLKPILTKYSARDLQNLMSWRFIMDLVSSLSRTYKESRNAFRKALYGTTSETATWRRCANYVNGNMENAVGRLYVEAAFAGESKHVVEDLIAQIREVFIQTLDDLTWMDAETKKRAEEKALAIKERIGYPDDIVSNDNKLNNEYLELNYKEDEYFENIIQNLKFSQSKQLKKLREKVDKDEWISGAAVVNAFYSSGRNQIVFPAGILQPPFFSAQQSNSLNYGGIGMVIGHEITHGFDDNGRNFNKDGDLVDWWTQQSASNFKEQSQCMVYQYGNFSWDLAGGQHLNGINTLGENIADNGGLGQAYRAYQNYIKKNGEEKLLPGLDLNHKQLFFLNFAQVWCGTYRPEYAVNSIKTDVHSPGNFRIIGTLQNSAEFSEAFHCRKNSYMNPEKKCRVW
MEASUREMENT KIND: Ki

Below are worked cases with known answers.
COMPOUND	MEASUREMENT KIND	RESULT
C[C@@](CO)(C[C@@H](Cc1ccc(-c2ccccc2)cc1)NC(=O)c1cc(O)no1)C(=O)O	Ki	≤ 1 nM
CC(C)(c1ccc(-c2ccccc2)cc1)[C@H](C[C@@H](CO)C(=O)O)NC(=O)c1cn(O)nn1	Ki	≤ 1 nM
CCCCc1cc(C(=O)N[C@H](Cc2ccc(-c3ccccc3)cc2)C[C@@H](CO)C(=O)O)[nH]n1	Ki	≤ 1 nM

// fetch Ki; item: C[C@@](CO)(C[C@@H](Cc1ccc(-c2ccccc2)cc1)NC(=O)c1cn(Cc2ccccc2)nn1)C(=O)O ; system: human NEP (Homo sapiens (Human), UniProt P08473)
12.6 to 100 nM

Give Ki for CC(C)(c1ccc(-c2ccccc2)cc1)[C@H](C[C@@H](CO)C(=O)O)NC(=O)c1cc(O)no1 tested on human NEP (Homo sapiens (Human), UniProt P08473).
≤ 1 nM

Report value: Ki, system: human NEP (Homo sapiens (Human), UniProt P08473), compound: Cc1nc2c(Cl)cc(C(=O)NC(Cc3ccc(-c4ccccc4)cc3)C[C@H](CO)C(=O)O)cc2[nH]1 (some centres unmarked)
12.6 to 100 nM

State the measured Ki (human NEP (Homo sapiens (Human), UniProt P08473)) of O=C(N[C@H](Cc1ccc(-c2ccccc2)cc1)C[C@@H](CO)C(=O)O)c1cc(O)n[nH]1
≤ 1 nM

Give Ki only, for O=C(N[C@H](Cc1ccc(-c2ccccc2F)cc1)C[C@@H](CO)C(=O)O)c1cn(O)nn1 , using human NEP (Homo sapiens (Human), UniProt P08473) data.
≤ 1 nM

Answer briefly: Ki recorded on human NEP (Homo sapiens (Human), UniProt P08473) for O=C(N[C@H](Cc1ccc(-c2ccccc2)cc1)C[C@@H](CO)C(=O)O)c1nc(Cl)n[nH]1
1.26 to 10 nM

Give the observed Ki of CC(=O)c1cc(C(=O)N[C@H](Cc2ccc(-c3ccccc3)cc2)C[C@@](C)(CO)C(=O)O)[nH]n1 for human NEP (Homo sapiens (Human), UniProt P08473).
12.6 to 100 nM

Please indicate recorded Ki of O=C(N[C@H](Cc1ccc(-c2cccc(F)c2)cc1)C[C@@H](CO)C(=O)O)c1cc(-c2ccccc2Cl)n[nH]1 measured with human NEP (Homo sapiens (Human), UniProt P08473).
≤ 1 nM

Identify measured Ki obtained with human NEP (Homo sapiens (Human), UniProt P08473) for O=C(N[C@H](Cc1ccc(-c2ccccc2)cc1)C[C@@H](CO)C(=O)O)c1nc(O)n[nH]1 .
≤ 1 nM

---

pKi overview
- STUDY SYSTEM: human NEP (Homo sapiens (Human))
- TEST SUMMARY: In vitro enzyme inhibition assay, inhibitor potencies at human NEP
- APPLIED CONDITIONS: pKi values at human NEP; recombinant human NEP, fluorogenic peptide substrate, 37° C.

Here are 3 compounds together with their reported answers.
COMPOUND	STUDY SYSTEM	RESULT
O=C(N[C@H](Cc1ccc(-c2ccccc2)cc1)C[C@@H](CO)C(=O)O)c1cnn[nH]1 [Example 1B]	human NEP (Homo sapiens (Human))	≥9.0
C[C@@](CO)(C[C@@H](Cc1ccc(-c2cccc(F)c2)cc1)NC(=O)c1cc(C(=O)O)n[nH]1)C(=O)O [Example 7]	human NEP (Homo sapiens (Human))	≥9.0
COCCN(C)C(=O)c1cc(C(=O)N[C@H](Cc2ccc(-c3ccccc3)cc2)C[C@@H](CO)C(=O)O)[nH]n1 [Example 4-22]	human NEP (Homo sapiens (Human))	8.0-8.9

Name the value of pKi reported for O=C(N[C@H](Cc1ccc(-c2cccc(F)c2)cc1)C[C@@H](CO)C(=O)O)c1nc(Cl)n[nH]1 [Example 3B] when tested on human NEP (Homo sapiens (Human)).
≥9.0
